# ASSAY SUMMARY: Permeability across human Caco-2 cell membrane
# Assay type: ADME, cell-based
Measured Papp, listed per entry.

Look over these answered cases.
| STRUCTURE STRING | EXPERIMENTAL VALUE |
| --- | --- |
| O=C1NC(c2ccccc2)(c2ccccc2)CN1C1CCN(Cc2ccccc2)CC1 | > 5 ×10⁻⁶ cm/s |
| O=C1NC(c2ccc(F)cc2)(c2ccc(F)cc2)CN1C1CCN(Cc2cccc(Cl)c2)CC1 | < 1 ×10⁻⁶ cm/s |
| O=C1NC(c2ccc(F)cc2)(c2ccc(F)cc2)CN1C1CCN(Cc2ccccc2)CC1 | > 5 ×10⁻⁶ cm/s |
| O=C1NC(c2cccs2)(c2cccs2)CN1C1CCN(Cc2cccc(F)c2)CC1 | ≤ 1 ×10⁻⁶ cm/s |
| O=C1NC(c2ccc(F)cc2)(c2ccc(F)cc2)CN1C1CCN(Cc2cccc(F)c2)CC1 | > 5 ×10⁻⁶ cm/s |

Please look at the following molecule next.
Prompt: Recorded Papp of O=C1NC(c2cccs2)(c2cccs2)CN1C1CCN(Cc2ccccc2)CC1 , please.
Completion: > 5 ×10⁻⁶ cm/s
